The reported measurements were obtained from PubChem BioAssay AID1259240.

Measured fold change of individual entries
# Method Description: modulation of TERT promoter-driven luciferase – cell-based, luciferase reporter, human, primary screen (AID 1259240)
# Condition Label: A2780 TERT promoter luciferase reporter, 16 h; at 20 µM, fold versus average of vehicle-only wells
Give the value as a plain number.

Worked examples follow.
compound=CCNc1nc2c(c(=O)n(C)c(=O)n2C)n1Cc1ccc(Cl)cc1 recorded_result=1.15
compound=O=C(Cn1nc(C(F)F)cc1C1CC1)N1CCCC1 recorded_result=1.2
compound="Cc1csc(NC(=O)C2CCCN(S(=O)(=O)c3c(C)[nH]c(=O)[nH]c3=O)C2)n1 (centres undefined)" recorded_result=-1.1
compound=CCN(CC)CCNC(=O)CN1C(=O)COc2ccc(S(=O)(=O)N3CCOCC3)cc21 recorded_result=-1.1

Requested read-out: fold change. Entry: `CCc1nc2c(cnn2-c2ccc(F)cc2)c(=O)n1-c1ccc(OC)c(Cl)c1`
1.04

Requested read-out: fold change. Entry: `COCCCNc1nc2c(-c3ccccc3)nnn2c2ccccc12`
1.02

Requested read-out: fold change. Entry: `Cc1ccc(N2CCN(c3cc(C)nc4ncnn34)CC2)c(C)c1`
-1.38

Requested read-out: fold change. Entry: Cc1ccc2c(C)nc(NC3=NCN(CC4CCCO4)CN3)nc2c1 (centres undefined)
-1.73

Requested read-out: fold change. Entry: `NC(=O)c1ccc(N=c2oc3ccccc3cc2S(=O)(=O)c2ccccc2)cc1`
1.06

====

# Method Description: modulation of TERT promoter-driven luciferase – cell-based, luciferase reporter, human, primary screen (AID 1259240)
# Condition Label: A2780 TERT promoter luciferase reporter, 16 h; at 20 µM, fold versus average of vehicle-only wells
Calls of active or inactive are those of the source. Cut-off read from the data, not from the text of the source: active = fold change mostly below about -2 (no sharp cut-off); inactive = mostly above about -1.8.
Experimental Readout: fold change

Worked examples follow.
molecule=CCOC(=O)N1CCC(Nc2c(N3CCOCC3)c(=O)c2=O)CC1 recorded_result="-1.09 (inactive)"
molecule=Cc1sc2nc3ccc(N4CCCC4)nn3c(=O)c2c1C recorded_result="-1.02 (inactive)"
molecule=c1ccc(CNc2nc3ccccc3n3cnnc23)nc1 recorded_result="1.11 (inactive)"

Requested read-out: fold change. Entry: CC(=O)NC1=NN(C(C)=O)C2(S1)C(=O)N(C)c1ccccc12 (stereo unspecified)
-1.23 (inactive)

Requested read-out: fold change. Entry: O=C(Cc1ccc(NC2=NC3CS(=O)(=O)CC3S2)cc1)Nc1ccc(F)cc1 (stereo unspecified)
-1.7 (inactive)

Requested read-out: fold change. Entry: `Cc1ccc(-c2cc(C(F)F)n3ncc(C(=O)N4CCC(C)CC4)c3n2)cc1`
1.16 (inactive)

====

# Method Description: modulation of TERT promoter-driven luciferase – cell-based, luciferase reporter, human, primary screen (AID 1259240)
# Condition Label: A2780 TERT promoter luciferase reporter, 16 h; at 20 µM, fold versus average of vehicle-only wells
Active and inactive are the calls of the source. Cut-off read from the data, not from the text of the source: active = fold change mostly below about -2 (no sharp cut-off); inactive = mostly above about -1.8.
I would appreciate it if you answered using one of these outcomes: active, inactive

What classification did O=C(NCCCN1CCCCC1)C1CCC(CNS(=O)(=O)c2cccc3nsnc23)CC1 (stereo not given) end up with in this test?
inactive

What classification did `COc1ccc(S(=O)(=O)n2cnc3ccccc32)c(C)c1` end up with in this test?
inactive

What classification did CCOC(=O)C1CCCN(c2c(N3CC(C)CC(C)C3)c(=O)c2=O)C1 (stereo not given) end up with in this test?
inactive

What classification did `O=C(O)Cn1c(O)c(C2=c3ccccc3=NC2=O)sc1=S` end up with in this test?
inactive

What classification did `CCCN1CN=C(Nc2nc(C)c3ccc(C)cc3n2)NC1` end up with in this test?
active

What classification did CCCN(CCC)C(=O)Cn1c(=O)oc2cc(S(=O)(=O)N3CC(C)CC(C)C3)ccc21 (stereo not given) end up with in this test?
inactive

What classification did `Cn1c(SCC(=O)Nc2ccc(F)cc2)nnc1-c1c[nH]c2ccccc12` end up with in this test?
inactive

What classification did `Cc1ccc(NC(=O)CSc2nc3c(c(=O)[nH]2)CCC3)cc1F` end up with in this test?
inactive

What classification did `COc1ccc(-c2nc(CSc3nc4c(c(=O)[nH]3)CCC4)c(C)o2)cc1` end up with in this test?
inactive

What classification did `CCN(CC)CCNc1nc2c(c(=O)[nH]c(=O)n2C)n1Cc1cccc(C)c1` end up with in this test?
inactive

====

# Method Description: modulation of TERT promoter-driven luciferase – cell-based, luciferase reporter, human, primary screen (AID 1259240)
# Condition Label: A2780 TERT promoter luciferase reporter, 16 h; at 20 µM, fold versus average of vehicle-only wells
Calls of active or inactive are those of the source. No stated cut-off is given here; in the data, active means fold change mostly below about -2 (no sharp cut-off); inactive means mostly above about -1.8.
I would appreciate it if you answered using one of these outcomes: label 1 = active, label 0 = inactive

compound=C=CCn1c(Oc2ccccc2Cl)nc2c1c(=O)n(C)c(=O)n2C cat="label 1"
compound=O=[N+]([O-])c1c(Nc2ccc(Cl)cc2)n[nH]c1-c1nnco1 cat="label 1"
compound=COc1cc(Nc2nnc(Cc3ccncc3)c3ccccc23)cc(OC)c1OC cat="label 0"
compound=CCNc1nc(NCC)nc(OCCNS(=O)(=O)c2ccccc2)n1 cat="label 0"
compound=CCOC(=O)CSc1nc(SCC(=O)OCC)c2c3c([nH]c2n1)CCCC3 cat="label 0"
compound="CCOC(=O)C1CCCN(c2c(NC3CCN(C(=O)OCC)CC3)c(=O)c2=O)C1 (stereo not drawn)" cat="label 0"
compound="CC(C)OCCCNC(=O)Cc1ccc(NC2=NC3CS(=O)(=O)CC3S2)cc1 (stereo not drawn)" cat="label 0"
compound=CN(C1=NS(=O)(=O)c2cc([N+](=O)[O-])ccc21)c1ccccc1 cat="label 1"

What classification did `CCOC(=O)Cc1nnc2c(Nc3ccccc3Cl)nc3nonc3n12` end up with in this test?
label 0

What classification did `CCc1ccc2[nH]cc(S(=O)(=O)c3ccc(C)c(C)c3)c(=O)c2c1` end up with in this test?
label 0

What classification did `COc1ccc(-c2nc3s/c(=C\c4cccc(Cl)c4)c(=O)n3n2)cc1OC` end up with in this test?
label 0

What classification did C=CCOc1cccc(C2c3c(oc4ccccc4c3=O)C(=O)N2c2nc(C)c(C(C)=O)s2)c1 (stereo not drawn) end up with in this test?
label 0

What classification did Cc1cc(C)cc(CC(CC(=O)Nc2nccs2)C(=O)Nc2nccs2)c1 (stereo not drawn) end up with in this test?
label 0

What classification did `COc1ccccc1-c1nc2s/c(=C3\C(=O)N(CC(=O)O)c4ccccc43)c(=O)n2n1` end up with in this test?
label 0

What classification did `Cn1c(SCc2nc(-c3ccccc3)no2)nnc1-c1ccco1` end up with in this test?
label 1

What classification did CCOC(=O)C1CCCN(c2c(NCC3COc4ccccc4O3)c(=O)c2=O)C1 (stereo not drawn) end up with in this test?
label 0

What classification did CC1CCCCN1c1nnc(NC(=O)Cn2c(=O)oc3ccccc32)s1 (stereo not drawn) end up with in this test?
label 0

====

# Method Description: modulation of TERT promoter-driven luciferase – cell-based, luciferase reporter, human, primary screen (AID 1259240)
# Condition Label: A2780 TERT promoter luciferase reporter, 16 h; at 20 µM, fold versus average of vehicle-only wells
Activity calls are given as the source filed them. Cut-off read from the data, not from the text of the source: active = fold change mostly below about -2 (no sharp cut-off); inactive = mostly above about -1.8.
I would appreciate it if you answered using one of these outcomes: yes for active, no for inactive

Solved entries (count: 6):
compound="Cc1nc2cc(-c3ccccc3)nn2c(C)c1CCC(=O)NC(C)c1ccc2c(c1)OCCO2 (stereo not given)" cat=yes
compound="O=C(CCCc1nnc2n3nc(-c4ccccc4)nc3c3ccccc3n12)NCC1CCCO1 (stereo not given)" cat=no
compound=O=C(Nc1ccc2nc3n(c(=O)c2c1)CCCCC3)C(=O)NC1CCCCC1 cat=no
compound="COC(=O)CN1C(=O)C(O)(CC(=O)c2ccc(Br)cc2)c2ccccc21 (stereo not given)" cat=no
compound="Cc1cc(C)cc(NC(=O)CC(C)CC2=NS(=O)(=O)c3ccccc3N2)c1 (stereo not given)" cat=no
compound=CN1C(C(=O)c2ccccc2)=C(OC(=O)c2ccc(F)cc2)c2ccccc2S1(=O)=O cat=no

What classification did CS(=O)(=O)Nc1ccc(C2=NN(C(=O)c3ccco3)C(c3ccco3)C2)cc1 (stereo not given) end up with in this test?
no

What classification did `CC1CCN(S(=O)(=O)c2ccc3c(c2)N(CC(=O)N2CCOCC2)C(=O)CO3)CC1` end up with in this test?
no

What classification did `Nc1nc(SCC(=O)NCCCN2CCOCC2)nc2sc3c(c12)CCC3` end up with in this test?
no

What classification did `Cn1c(C(=O)N2CCC(C(=O)NCCc3c[nH]c4ccccc34)CC2)cc2sccc21` end up with in this test?
no

====

# Method Description: modulation of TERT promoter-driven luciferase – cell-based, luciferase reporter, human, primary screen (AID 1259240)
# Condition Label: A2780 TERT promoter luciferase reporter, 16 h; at 20 µM, fold versus average of vehicle-only wells
Activity calls are given as the source filed them. No stated cut-off is given here; in the data, active means fold change mostly below about -2 (no sharp cut-off); inactive means mostly above about -1.8.
Experimental Readout: fold change

smiles_text=NC(=O)c1c(NC(=O)c2cc(-c3ccc(O)cc3)on2)sc2c1CCCC2 recorded_result=inactive
smiles_text=Cc1[nH]n(-c2nc3ccccc3[nH]2)c(=O)c1C=Nc1ccc(F)cc1 recorded_result=inactive
smiles_text=O=C1C(=O)N(CC(=O)N2CCCCC2)c2ccccc21 recorded_result="1.04 (inactive)"
smiles_text=Cc1cc(NC(=O)CSc2nnc(Cn3c(=O)sc4ccccc43)n2-c2ccccc2)no1 recorded_result="1.22 (inactive)"

Could you now consider this next compound?
Requested read-out: fold change. Entry: `CSc1nsc(SC)c1C(=O)NCCNS(=O)(=O)c1ccc(C)cc1`
-1.37 (inactive)
